test.system: HUSpm_K88A (Spiroplasma melliferum, UniProt A0ABX5UAT3, K88A)
experimental.context: read-out: IC50 against HUSpm mutant HUSpm_R88A (so in the source); EMSA with DS24a; mean ± SD from three runs; 100 nM protein
recorded.endpoint: IC50 (µM)

[
  {
    "smiles.input": "O=C(Oc1ccc(C2(c3ccc(OC(=O)c4ccc(C(=O)O)c(C(=O)O)c4)cc3)c3ccccc3-c3ccccc32)cc1)c1ccc(C(=O)O)c(C(=O)O)c1",
    "recorded.endpoint": "IC50",
    "unit.of.measure": "µM",
    "readout.number": 6.3
  }
]

* * *

test.system: HUSpm (Spiroplasma melliferum, UniProt A0ABX5UAT3)
method: biochemical
Assay type: binding
experimental.context: read-out: IC50, half-maximal inhibitory concentration of HUSpm-DNA complex formation; EMSA with DS24a duplex; average±SD from three runs
pIC50: −log10 of the molar value.
recorded.endpoint: pIC50

[
  {
    "molecule": "O=C(Oc1ccc(C2(c3ccc(OC(=O)c4ccc(C(=O)O)c(C(=O)O)c4)cc3)c3ccccc3-c3ccccc32)cc1)c1ccc(C(=O)O)c(C(=O)O)c1 [BDF4]",
    "recorded.endpoint": "pIC50",
    "readout.number": 5.25
  }
]

* * *

test.system: HUSpm (Spiroplasma melliferum)
method: biochemical
Format: binding
experimental.context: IC50 given in figure, HUSpm-DNA binding, DS24a; representative result of one independent assay
pIC50: −log10 of the molar value.
recorded.endpoint: pIC50

[
  {
    "smiles.input": "O=C(O)c1cccc(C(=O)Oc2ccc(C3(c4ccc(OC(=O)c5cccc(C(=O)O)c5)cc4)c4ccccc4-c4ccccc43)cc2)c1",
    "test.system": "HUSpm (Spiroplasma melliferum)",
    "readout.number": 5.06
  }
]

* * *

test.system: HUEc (HUα-homodimer from E. coli) (Escherichia coli, UniProt P0ACF0)
Construct: made in house
Sequence (P0ACF0 whole entry): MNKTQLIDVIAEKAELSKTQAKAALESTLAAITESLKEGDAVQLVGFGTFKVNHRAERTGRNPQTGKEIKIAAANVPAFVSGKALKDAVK
method: biochemical
Assay type: binding
experimental.context: IC50, inhibition of HUEc DNA-binding, EMSA with DS24a; average ± SD from three runs
recorded.endpoint: IC50 (µM)

[
  {
    "smiles.input": "O=C(O)c1cccc(C(=O)Oc2ccc(C3(c4ccc(OC(=O)c5cccc(C(=O)O)c5)cc4)c4ccccc4-c4ccccc43)cc2)c1",
    "unit.of.measure": "µM",
    "readout.number": 10
  }
]

* * *

test.system: HUEc (HUα-homodimer from E. coli) (Escherichia coli, UniProt P0ACF0)
Construct: made in house
method: biochemical
Assay type: binding
experimental.context: IC50 given in figure, HUEc DNA binding, DS24a; representative result of one independent assay

[
  {
    "smiles.input": "O=C(O)c1cccc(C(=O)Oc2ccc(C3(c4ccc(OC(=O)c5cccc(C(=O)O)c5)cc4)c4ccccc4-c4ccccc43)cc2)c1",
    "IC50 / µM": 9.5
  }
]

* * *

test.system: HUMgal (Mycoplasmoides gallisepticum)
Sequence (A0A0F6CKR5 entry or part of it): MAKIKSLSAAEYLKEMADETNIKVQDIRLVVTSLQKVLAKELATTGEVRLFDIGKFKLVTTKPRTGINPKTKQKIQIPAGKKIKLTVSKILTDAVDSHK
method: EMSA, inhibition of HUMgal DNA binding
Design: species or system Mycoplasma gallisepticum
experimental.context: DS24a; representative result of one independent assay; read-out: IC50 given in figure, HUMgal DNA binding

[
  {
    "smiles.input": "O=C(O)c1cccc(C(=O)Oc2ccc(C3(c4ccc(OC(=O)c5cccc(C(=O)O)c5)cc4)c4ccccc4-c4ccccc43)cc2)c1",
    "IC50": "8.2 µM"
  }
]
